# MEASUREMENT_NOTES: Lactone/carboxylate form and lactone half-life in plasma
# Type: in vitro ADME, rat
# APPLIED_CONDITIONS: rat plasma
PARAMETER_MEASURED: half-life

# COMPOUND, PARAMETER_MEASURED, DATA_VALUE
data = [
    ("CC[C@@]1(O)C(=O)OCc2c1cc1n(c2=O)Cc2cc3ccccc3nc2-1 [camptothecin]", "half-life", "~40 min"),
]
